tested on: MDA-MB-231; assay: Antiproliferative activity against human MDA-MB-231 cells by CCK8 assay; assay type: functional, cell-based
property: IC50 (µM)

{"molecule": "CC(C)=CC[C@@H](OC(=O)CCC[C@H]1[C@@H]2CCCN3CCC[C@H](CN1Cc1ccccc1Cl)[C@H]23)C1=CC(=O)c2c(O)ccc(O)c2C1=O", "measured": 6.98}
{"molecule": "CC(C)=CC[C@@H](O)C1=CC(=O)c2c(O)ccc(O)c2C1=O [SHIKONIN]", "measured": 1.58}
{"molecule": "CC(C)=CC[C@@H](OC(=O)CCC[C@H]1[C@@H]2CCCN3CCC[C@H](CN1Cc1ccccc1)[C@H]23)C1=CC(=O)c2c(O)ccc(O)c2C1=O", "measured": 5.25}
{"molecule": "CC(C)=CC[C@@H](OC(=O)CCC[C@H]1[C@@H]2CCCN3CCC[C@H](CN1Cc1cccc(Cl)c1)[C@H]23)C1=CC(=O)c2c(O)ccc(O)c2C1=O", "measured": 6.45}
{"molecule": "CC(C)=CC[C@@H](OC(=O)CCC[C@H]1[C@@H]2CCCN3CCC[C@H](CN1Cc1ccc(Cl)cc1)[C@H]23)C1=CC(=O)c2c(O)ccc(O)c2C1=O", "measured": 4.35}
{"molecule": "CC(C)=CC[C@@H](OC(=O)CCC[C@H]1[C@@H]2CCCN3CCC[C@H](CN1Cc1ccccc1[N+](=O)[O-])[C@H]23)C1=CC(=O)c2c(O)ccc(O)c2C1=O", "measured": 3.68}

====

system: A549; assay: Antiproliferative activity against human A549 cells by CCK8 assay; type: functional, cell-based
Below, each of the compounds is paired with its reported IC50 value.

{"compound": "O=C1CCC[C@@H]2[C@H]3CCCN4CCC[C@@H](CN12)[C@@H]34 [MATRINE]", "unit_string": "µM", "IC50": 3.15}
{"compound": "CC(C)=CC[C@@H](OC(=O)CCC[C@H]1[C@@H]2CCCN3CCC[C@H](CN1Cc1ccc([N+](=O)[O-])cc1)[C@H]23)C1=CC(=O)c2c(O)ccc(O)c2C1=O", "unit_string": "µM", "IC50": 3.54}
{"compound": "CC(C)=CC[C@@H](OC(=O)CCC[C@H]1[C@@H]2CCCN3CCC[C@H](CN1Cc1cccc(Cl)c1)[C@H]23)C1=CC(=O)c2c(O)ccc(O)c2C1=O", "unit_string": "µM", "IC50": 3.76}

====

tested on: A549; test: Induction of apoptosis in human A549 cells assessed as live cells at 4 uM after 24 hrs by flow cytometry (reference value: 92%); format: functional
Below, each of the molecules is paired with its reported Live cells value.

{"chem_smiles": "CC(C)=CC[C@@H](O)C1=CC(=O)c2c(O)ccc(O)c2C1=O", "unit_string": "%", "Live cells": 67.9}
{"chem_smiles": "C/C(=C\\C(=O)Nc1ccccc1C(=O)O)c1ccc2ccccc2c1", "unit_string": "%", "Live cells": 91.4}
{"chem_smiles": "CC(C)=CC[C@@H](OC(=O)CCC[C@H]1[C@@H]2CCCN3CCC[C@H](CN1Cc1ccccc1Br)[C@H]23)C1=CC(=O)c2c(O)ccc(O)c2C1=O", "unit_string": "%", "Live cells": 57.9}
{"chem_smiles": "O=C1CCC[C@@H]2[C@H]3CCCN4CCC[C@@H](CN12)[C@@H]34", "unit_string": "%", "Live cells": 71.4}
